Each recorded value in this set is attributed to the supplement of paper PMC10567573.

B1: PPP2R2C (parent)
chain: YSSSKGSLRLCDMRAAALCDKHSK

# Variants of: B1
# PROTOCOL: protein stability index of a GFP-peptide fusion (GPS, HEK-293T) (PSI 1-6); higher = more stable;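 further: lentivirally expressed fusions sorted by FACS into six bins by GFP to DsRed ratio, PSI derived from sequencing read proportions per bin multiplied by bin number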
# APPLIED CONDITIONS: c terminus: a fixed tail appended
REPORTED METRIC: protein stability index
Output spec: single numeric token, no unit.

Input line: Entry under review: D12G . Reported protein stability index?
Output line: 1.93

Input line: Then what about the variant C19H ?
Output line: 1.56

Input line: Then what about the variant K21A ?
Output line: 2.35

Input line: Then what about the variant S7K ?
Output line: 1.07

Input line: Then what about the variant S2W ?
Output line: 1.89

Input line: Then what about the variant S23F ?
Output line: 2.57

Input line: Then what about the variant C11Q ?
Output line: 2.97

Input line: Then what about the variant A17L ?
Output line: 1.75

Input line: Then what about the variant R9D ?
Output line: 4.21

Input line: Then what about the variant L18Q ?
Output line: 2.17

Input line: Then what about the variant C11K ?
Output line: 3.07

Input line: Then what about the variant R9S ?
Output line: 3.81

Input line: Then what about the variant R14W ?
Output line: 1.69

Input line: Then what about the variant S3W ?
Output line: 2.15

Input line: Then what about the variant G6R ?
Output line: 2.05

Input line: Then what about the variant L10E ?
Output line: 4.47

Input line: Then what about the variant K21E ?
Output line: 1.26

Input line: Then what about the variant A17P ?
Output line: 2.1

Input line: Then what about the variant A17D ?
Output line: 1.51

Input line: Then what about the variant K24F ?
Output line: 1.36

Input line: Then what about the variant S3A ?
Output line: 2.93

Input line: Then what about the variant A16R ?
Output line: 2.04

Input line: Then what about the variant G6E ?
Output line: 2.68

Input line: Then what about the variant K21L ?
Output line: 1.29

Input line: Then what about the variant S2Q ?
Output line: 1.94

Input line: Then what about the variant G6L ?
Output line: 2.18

Input line: Then what about the variant C19M ?
Output line: 1.68

Input line: Then what about the variant S7V ?
Output line: 2.24

Input line: Then what about the variant G6P ?
Output line: 2.48

Input line: Then what about the variant C11S ?
Output line: 3.16

Input line: Then what about the variant L8G ?
Output line: 2.19

Input line: Then what about the variant K21D ?
Output line: 1.78

Input line: Then what about the variant S23G ?
Output line: 1.76

Input line: Then what about the variant S23N ?
Output line: 1.43

Input line: Then what about the variant L8V ?
Output line: 1.95

Input line: Then what about the variant S23W ?
Output line: 1.35

Input line: Then what about the variant S2D ?
Output line: 3.89

Input line: Then what about the variant A16P ?
Output line: 1.64

Input line: Then what about the variant L18A ?
Output line: 2.15

Input line: Then what about the variant K24W ?
Output line: 2.51

Input line: Then what about the variant C11A ?
Output line: 2.96

Input line: Then what about the variant C19G ?
Output line: 1.25

Input line: Then what about the variant Y1V ?
Output line: 3.56

Input line: Then what about the variant S7P ?
Output line: 1.89

Input line: Then what about the variant S23K ?
Output line: 1.82

Input line: Then what about the variant R9K ?
Output line: 3.11

Input line: Then what about the variant S7T ?
Output line: 1.8

Input line: Then what about the variant L18P ?
Output line: 1.58

Input line: Then what about the variant R9G ?
Output line: 1.9

Input line: Then what about the variant H22M ?
Output line: 1.7

Input line: Then what about the variant Y1C ?
Output line: 2.98

Input line: Then what about the variant A15H ?
Output line: 1.78

Input line: Then what about the variant K5G ?
Output line: 1.49

Input line: Then what about the variant A17K ?
Output line: 1.85

Input line: Then what about the variant K5D ?
Output line: 2.06

Input line: Then what about the variant A17V ?
Output line: 3.45

Input line: Then what about the variant C11F ?
Output line: 1.67

Input line: Then what about the variant K5E ?
Output line: 1.73

Input line: Then what about the variant L18T ?
Output line: 1.81

Input line: Then what about the variant R9T ?
Output line: 3.28

Input line: Then what about the variant A15I ?
Output line: 1.96

Input line: Then what about the variant M13I ?
Output line: 2.08

Input line: Then what about the variant R14C ?
Output line: 2.89

Input line: Then what about the variant L10K ?
Output line: 3.1

Input line: Then what about the variant S4D ?
Output line: 2.96

Input line: Then what about the variant H22Y ?
Output line: 1.91

Input line: Then what about the variant G6W ?
Output line: 1.76

Input line: Then what about the variant R14M ?
Output line: 2.29

Input line: Then what about the variant L18E ?
Output line: 1.9

Input line: Then what about the variant L8R ?
Output line: 1.51

Input line: Then what about the variant A17M ?
Output line: 1.79

Input line: Then what about the variant C19T ?
Output line: 1.71

Input line: Then what about the variant K5L ?
Output line: 1.93

Input line: Then what about the variant H22I ?
Output line: 2.22

Input line: Then what about the variant S3N ?
Output line: 2.48

Input line: Then what about the variant Y1F ?
Output line: 2.31

Input line: Then what about the variant C19R ?
Output line: 2.06

Input line: Then what about the variant C11W ?
Output line: 1.2

Input line: Then what about the variant L8C ?
Output line: 2.5

Input line: Then what about the variant K21H ?
Output line: 2.01

Input line: Then what about the variant R9M ?
Output line: 1.9

Input line: Then what about the variant L18K ?
Output line: 1.73

Input line: Then what about the variant L18V ?
Output line: 2.02

Input line: Then what about the variant S4K ?
Output line: 1.34

Input line: Then what about the variant C11E ?
Output line: 3.85

Input line: Then what about the variant D20F ?
Output line: 2.19

Input line: Then what about the variant A17H ?
Output line: 2.29

Input line: Then what about the variant R9I ?
Output line: 1.7

Input line: Then what about the variant C19D ?
Output line: 2.3

Input line: Then what about the variant S4W ?
Output line: 1.63

Input line: Then what about the variant A17S ?
Output line: 1.31
